Hi there, I'd appreciate the recorded Mean accuracy (%), Table S15 for every entry that follows.
Experimental Details: Long-term storage stability of antibiotics in combination with fosfomycin spiked in plasma/CAMHB (−30 °C, −80 °C)
Format: physicochemical
Measurement Setup: CAMHB, combination with fosfomycin, 2 weeks at -30 °C; LQC (nominal as E13)
One number for each entry, in %.

Worked examples follow.
Molecule: Cn1c(N)c(NC(=O)NCCN)c[n+]1CC1=C(C(=O)O)N2C(=O)[C@@H](NC(=O)/C(=N\OC(C)(C)C(=O)[O-])c3nsc(N)n3)[C@H]2SC1
Mean accuracy (%), Table S15: 91.3
--
Molecule: CO/N=C(\C(=O)N[C@@H]1C(=O)N2C(C(=O)[O-])=C(C[N+]3(C)CCCC3)CS[C@H]12)c1csc(N)n1 [Cefepime, cefepime]
Mean accuracy (%), Table S15: 100.9

# next molecule below
Entry `C[C@@H](O)[C@H]1C(=O)N2C(C(=O)O)=C(S[C@@H]3CN[C@H](CNS(N)(=O)=O)C3)[C@H](C)[C@H]12` , Mean accuracy (%), Table S15 reported as 73.1
